I'd appreciate it if you could supply MIC P. aeruginosa GN_043, PmxR values for the items below.
Tested on: P. aeruginosa GN_043, PmxR
STATED_CONDITIONS: P. aeruginosa GN_043, PmxR
Positions of bridges follow the written chain, without caps; N, C: chain ends. Non-standard residues stand in square brackets, D forms with d. Residues, ends and D or L forms follow the SMILES beside them. *: point of attachment. Decanoyl(3R-OH) = CCCCCCC[C@@H](O)CC(=O)*; dBip = N[C@H](Cc1ccc(-c2ccccc2)cc1)C(=O)O; dDab = NCC[C@@H](N)C(=O)O; Heptanoyl = CCCCCCC(=O)*; dDap = NC[C@@H](N)C(=O)O; Dab = NCC[C@H](N)C(=O)O
Numbers only, in µg/mL.

In the examples that follow, each entry is paired with its recorded MIC P. aeruginosa GN_043, PmxR.
INSERT INTO results (compound, endpoint_name, observed_result) VALUES
  ('CCCCCCC[C@@H](O)CC(=O)N[C@H](CC(N)=O)C(=O)N[C@H]1CCNC(=O)[C@H](CC(C)C)NC(=O)[C@H](CCN)NC(=O)[C@H](CCN)NC(=O)[C@H](Cc2ccccc2)NC(=O)[C@@H](CC(C)C)NC(=O)[C@H](CCN)NC1=O [compound 6432] ({Decanoyl(3R-OH)}-[dN][Dab][Dab][dL]F[Dab][Dab]L; lactam 2-C)', 'MIC P. aeruginosa GN_043, PmxR', 4),
  ('CCCCCCC[C@@H](O)CC(=O)N[C@H](CCN)C(=O)N[C@H]1CCNC(=O)[C@H]([C@@H](C)O)NC(=O)[C@H](CCN)NC(=O)[C@H](CCN)NC(=O)[C@H](CC(C)C)NC(=O)[C@@H](Cc2ccc(-c3ccccc3)cc2)NC(=O)[C@H](CCN)NC1=O [compound 5608] ({Decanoyl(3R-OH)}-[dDab][Dab][Dab][dBip]L[Dab][Dab]T; lactam 2-C)', 'MIC P. aeruginosa GN_043, PmxR', 1),
  ('CCCCCCC[C@@H](O)CC(=O)N[C@H](CN)C(=O)N[C@H]1CCNC(=O)[C@H](CC(C)C)NC(=O)[C@H](CCN)NC(=O)[C@H](CCN)NC(=O)[C@H](Cc2ccccc2)NC(=O)[C@@H](CC(C)C)NC(=O)[C@H](CCN)NC1=O [compound 6427] ({Decanoyl(3R-OH)}-[dDap][Dab][Dab][dL]F[Dab][Dab]L; lactam 2-C)', 'MIC P. aeruginosa GN_043, PmxR', 4);

Looking up CCCCCCC(=O)N[C@H](CN)C(=O)N[C@H]1CCNC(=O)[C@H](CC(C)C)NC(=O)[C@H](CCN)NC(=O)[C@H](CCN)NC(=O)[C@H](CC(C)C)NC(=O)[C@@H](Cc2ccccc2)NC(=O)[C@H](CCN)NC1=O [compound 9190] (Heptanoyl-[dDap][Dab][Dab][dF]L[Dab][Dab]L; lactam 2-C) , I see its MIC P. aeruginosa GN_043, PmxR listed as 4

====

System: K. pneumoniae GN_106, PmxR
STATED_CONDITIONS: GN 106, PmxR
Positions of bridges follow the written chain, without caps; N, C: chain ends. Non-standard residues stand in square brackets, D forms with d. Residues, ends and D or L forms follow the SMILES beside them. *: point of attachment. Decanoyl(3R-OH) = CCCCCCC[C@@H](O)CC(=O)*; dDab = NCC[C@@H](N)C(=O)O; Dab = NCC[C@H](N)C(=O)O
ENDPOINT_NAME: MIC K. pneumoniae GN_106, PmxR

In the examples that follow, each entry is paired with its recorded MIC K. pneumoniae GN_106, PmxR.
INSERT INTO measurements (compound, observed_result) VALUES
  ('CC(=O)N[C@H](CCN)C(=O)N[C@H]1CCNC(=O)[C@H](Cc2c[nH]c3ccccc23)NC(=O)[C@H](CCN)NC(=O)[C@H](CCN)NC(=O)[C@H](CC(C)C)NC(=O)[C@@H](Cc2ccccc2)NC(=O)[C@H](CCN)NC1=O [compound 8981] (Ac-[dDab][Dab][Dab][dF]L[Dab][Dab]W; lactam 2-C)', '>32 µg/mL'),
  ('CCCCCCC[C@@H](O)CC(=O)N[C@H](CCN)C(=O)N[C@H]1CCCCNC(=O)[C@H](CC(C)C)NC(=O)[C@H](CCN)NC(=O)[C@H](CCN)NC(=O)[C@H](CC(C)C)NC(=O)[C@@H](Cc2ccccc2)NC(=O)[C@H](CCN)NC1=O [compound 5382] ({Decanoyl(3R-OH)}-[dDab]K[Dab][dF]L[Dab][Dab]L; lactam 2-C)', '>32 µg/mL');

Now take the following compound into account.
Looking up CCCCCCC[C@@H](O)CC(=O)N[C@H](CCN)C(=O)N[C@H]1CCNC(=O)[C@H](CO)NC(=O)[C@H](CCN)NC(=O)[C@H](CCN)NC(=O)[C@H](CC(C)C)NC(=O)[C@@H](Cc2ccccc2)NC(=O)[C@H](CCN)NC1=O [compound 6510] ({Decanoyl(3R-OH)}-[dDab][Dab][Dab][dF]L[Dab][Dab]S; lactam 2-C) , I see its MIC K. pneumoniae GN_106, PmxR listed as >32 µg/mL

====

Tested on: K. pneumoniae GN_106, PmxR
STATED_CONDITIONS: GN 106, PmxR
Positions of bridges follow the written chain, without caps; N, C: chain ends. Non-standard residues stand in square brackets, D forms with d. Residues, ends and D or L forms follow the SMILES beside them. *: point of attachment. Decanoyl(3R-OH) = CCCCCCC[C@@H](O)CC(=O)*; d2Nal = N[C@H](Cc1ccc2ccccc2c1)C(=O)O; dIgl = N[C@@H](C(=O)O)C1Cc2ccccc2C1; Igl = N[C@H](C(=O)O)C1Cc2ccccc2C1; dDab = NCC[C@@H](N)C(=O)O; Octanoyl = CCCCCCCC(=O)*; Dab = NCC[C@H](N)C(=O)O
ENDPOINT_NAME: MIC K. pneumoniae GN_106, PmxR (µg/mL)
Give bare numbers, in µg/mL.

In the examples that follow, each entry is paired with its recorded MIC K. pneumoniae GN_106, PmxR.
INSERT INTO assay_data (compound, observed_result) VALUES
  ('CCCCCCC[C@@H](O)CC(=O)N[C@H](CCN)C(=O)N[C@H]1CCNC(=O)[C@H](CC(C)C)NC(=O)[C@H](C)NC(=O)[C@H](CCN)NC(=O)[C@H](CC(C)C)NC(=O)[C@@H](Cc2ccccc2)NC(=O)[C@H](CCN)NC1=O [compound 4944] ({Decanoyl(3R-OH)}-[dDab][Dab][Dab][dF]L[Dab]AL; lactam 2-C)', 32),
  ('CCCCCCC[C@@H](O)CC(=O)N[C@H](CCN)C(=O)N[C@H]1CCNC(=O)[C@H](Cc2c[nH]c3ccccc23)NC(=O)[C@H](CCN)NC(=O)[C@H](CCN)NC(=O)[C@H](CC(C)C)NC(=O)[C@@H](Cc2ccc3ccccc3c2)NC(=O)[C@H](CCN)NC1=O [compound 8113] ({Decanoyl(3R-OH)}-[dDab][Dab][Dab][d2Nal]L[Dab][Dab]W; lactam 2-C)', 8),
  ('CCCCCCC[C@@H](O)CC(=O)N[C@H](CCN)C(=O)N[C@H]1CCNC(=O)[C@H](Cc2c[nH]c3ccccc23)NC(=O)[C@H](CCN)NC(=O)[C@H](CCN)NC(=O)[C@H](C2Cc3ccccc3C2)NC(=O)[C@@H](Cc2ccccc2)NC(=O)[C@H](CCN)NC1=O [compound 8103] ({Decanoyl(3R-OH)}-[dDab][Dab][Dab][dF][Igl][Dab][Dab]W; lactam 2-C)', 4);

Looking up CCCCCCCC(=O)N[C@H](CCN)C(=O)N[C@H]1CCNC(=O)[C@H](Cc2c[nH]c3ccccc23)NC(=O)[C@H](CCN)NC(=O)[C@H](CCN)NC(=O)[C@H](CC(C)C)NC(=O)[C@@H](C2Cc3ccccc3C2)NC(=O)[C@H](CCN)NC1=O [compound 8900] (Octanoyl-[dDab][Dab][Dab][dIgl]L[Dab][Dab]W; lactam 2-C) , I see its MIC K. pneumoniae GN_106, PmxR listed as 16

====

TEST_PROTOCOL: in vitro
STATED_CONDITIONS: human
Positions of bridges follow the written chain, without caps; N, C: chain ends. Non-standard residues stand in square brackets, D forms with d. Residues, ends and D or L forms follow the SMILES beside them. *: point of attachment. Isonicotinoyl(2-Ph) = O=C(c1ccnc(-c2ccccc2)c1)*; Decanoyl(3R-OH) = CCCCCCC[C@@H](O)CC(=O)*; d3Pal = N[C@H](Cc1cccnc1)C(=O)O; dOrn = NCCC[C@@H](N)C(=O)O; dDab = NCC[C@@H](N)C(=O)O; Dab = NCC[C@H](N)C(=O)O
I'd appreciate it if you could supply CC50 at 24 h values for the items below.

INSERT INTO results (compound, endpoint_name, observed_result) VALUES
  ('CCCCCCC[C@@H](O)CC(=O)N[C@H](CCCN)C(=O)N[C@H]1CCNC(=O)[C@H]([C@@H](C)O)NC(=O)[C@H](CCN)NC(=O)[C@H](CCN)NC(=O)[C@H](CC(C)C)NC(=O)[C@@H](Cc2ccccc2)NC(=O)[C@H](CCN)NC1=O [compound 6396] ({Decanoyl(3R-OH)}-[dOrn][Dab][Dab][dF]L[Dab][Dab]T; lactam 2-C)', 'CC50 at 24 h', '> 300 µM'),
  ('CC(C)C[C@@H]1NC(=O)[C@H](CCN)NC(=O)[C@H](CCN)NC(=O)[C@H](CC(C)C)NC(=O)[C@@H](Cc2ccccc2)NC(=O)[C@H](CCN)NC(=O)[C@@H](NC(=O)[C@@H](CCN)NC(=O)c2ccnc(-c3ccccc3)c2)CCNC1=O [compound 6525] ({Isonicotinoyl(2-Ph)}-[dDab][Dab][Dab][dF]L[Dab][Dab]L; lactam 2-C)', 'CC50 at 24 h', '> 300 µM');

Now take the following compound into account.
Looking up CCCCCCC[C@@H](O)CC(=O)N[C@H](Cc1cccnc1)C(=O)N[C@H]1CCNC(=O)[C@H]([C@@H](C)O)NC(=O)[C@H](CCN)NC(=O)[C@H](CCN)NC(=O)[C@H](CC(C)C)NC(=O)[C@@H](Cc2ccccc2)NC(=O)[C@H](CCN)NC1=O [compound 6398] ({Decanoyl(3R-OH)}-[d3Pal][Dab][Dab][dF]L[Dab][Dab]T; lactam 2-C) , I see its CC50 at 24 h listed as > 300 µM
